Each entry below lists one item and its recorded AC50 value.
Tested on: FoxO3a
Assay: FoxO3a inhibition: GFP-FoxO3a nuclear to cytoplasmic translocation reporter assay
Format: cell-based
Conditions: U2OS GFP-FoxO3a H212R cells, serum starved overnight, compound 30 minutes; ratio of nuclear to cytosolic GFP intensity; DMSO control 0%; read-out: FoxO AC50
Just the number in nM, nothing appended.

# count of solved cases: 3
COMPOUND | ASSAY_SYSTEM | VALUE_UNITS | AC50
Cc1cc(C(N)=O)nn1-c1ccc2c(ccn2Cc2ccc(C3=CCN4CCCC3C4)cc2)c1 (single isomer, unassigned) [Example 14] | FoxO3a | nM | 652
Cc1cc(C(N)=O)nn1-c1ccc2c(ccn2Cc2ccc(C3CCCN(C)CC3)cc2)c1 (single isomer, unassigned) [Example 29-2] | FoxO3a | nM | 818
Cc1cc(C(N)=O)nn1-c1ccc2c(ccn2Cc2ccc(C3=CCN(C)CC3C)cc2)c1 (single isomer, unassigned) [Example 17-3] | FoxO3a | nM | 251

Consider the additional compound presented here.
Q) What value of measured AC50 is listed for Cc1cc(C(N)=O)nn1-c1ccc2c(ccn2Cc2ccc(C3=CCN(C)CC3C)cc2)c1 (single isomer, unassigned) [Example 17-2] ?
A) 47

Values from patent US10654828B2
